STUDY TARGET: Ba/F3-FGFR1-transfected cells (Homo sapiens, UniProt P11362)
Construct: BAF3-FGFR1 (MIN IL3) pIC50; other: minus IL3
Sequence (P11362 whole entry, change not shown): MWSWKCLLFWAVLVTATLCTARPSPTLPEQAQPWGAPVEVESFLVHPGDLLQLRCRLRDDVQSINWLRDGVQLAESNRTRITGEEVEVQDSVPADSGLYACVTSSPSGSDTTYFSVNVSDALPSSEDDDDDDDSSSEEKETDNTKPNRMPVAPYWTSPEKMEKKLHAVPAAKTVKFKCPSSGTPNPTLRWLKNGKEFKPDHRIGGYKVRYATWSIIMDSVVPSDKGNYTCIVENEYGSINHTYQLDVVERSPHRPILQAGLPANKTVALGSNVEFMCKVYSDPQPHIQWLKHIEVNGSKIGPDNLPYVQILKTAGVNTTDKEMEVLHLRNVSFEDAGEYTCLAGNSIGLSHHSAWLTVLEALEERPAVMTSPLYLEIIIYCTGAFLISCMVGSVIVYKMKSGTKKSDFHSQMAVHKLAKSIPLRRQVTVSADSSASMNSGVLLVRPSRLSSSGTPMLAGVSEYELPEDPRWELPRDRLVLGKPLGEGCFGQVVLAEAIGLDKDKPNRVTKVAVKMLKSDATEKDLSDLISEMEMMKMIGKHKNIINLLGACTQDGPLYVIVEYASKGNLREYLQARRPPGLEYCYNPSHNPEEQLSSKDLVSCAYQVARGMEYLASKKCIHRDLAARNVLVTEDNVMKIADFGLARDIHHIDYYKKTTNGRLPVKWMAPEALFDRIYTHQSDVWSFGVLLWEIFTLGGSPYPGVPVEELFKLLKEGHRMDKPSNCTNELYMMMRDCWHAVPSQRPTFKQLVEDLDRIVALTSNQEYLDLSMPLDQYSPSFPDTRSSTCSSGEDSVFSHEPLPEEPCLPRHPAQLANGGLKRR
ASSAY SUMMARY: Ba/F3-FGFR1 (minus IL3) cellular proliferation assay, Alamar Blue
Type: cell-based
Assignment: determine reported BAF3-FGFR1 (MIN IL3) pIC50 for the given compounds.
Number, no unit, nothing else.

# query: BAF3-FGFR1 (MIN IL3) pIC50 of entry COc1cc(OC)c(F)c(N(Cc2ncc[nH]2)c2ccc3ncc(-c4cnn(CCS(C)(=O)=O)c4)nc3n2)c1 7.66

May I ask what BAF3-FGFR1 (MIN IL3) pIC50 has been recorded for COc1cc(OC)c(F)c(N(CC(=O)N2CCNCC2)c2ccc3ncc(-c4cnn(C)c4)nc3n2)c1 ? 6.51

Query: BAF3-FGFR1 (MIN IL3) pIC50; subject: COc1cc(OC)c(F)c(N(c2ccc3ncc(-c4cnn(C)c4)nc3n2)C(C)c2ncc[nH]2)c1 (stereo not shown) 8.87

Please give the measured BAF3-FGFR1 (MIN IL3) pIC50 for this compound: COc1cc(OC)c(F)c(N(CC(C)(C)O)c2ccc3ncc(-c4cnn(C)c4)nc3n2)c1 6.86

* * *

STUDY TARGET: Ba/F3-FGFR1-transfected cells (Homo sapiens)
Construct: BAF3-FGFR1 (MIN IL3) pIC50; other: minus IL3
ASSAY SUMMARY: Ba/F3-FGFR1 (minus IL3) cellular proliferation assay, Alamar Blue
Assay type: cell-based
EXPERIMENTAL ENDPOINT: BAF3-FGFR1 (MIN IL3) pIC50
# answer = number (no unit)

Request the reported BAF3-FGFR1 (MIN IL3) pIC50 associated with COc1cc(OC)c(F)c(N(CC(O)COC(C)C)c2ccc3ncc(-c4cnn(C)c4)nc3n2)c1 (single isomer, unassigned) [Compound 79] 7.58

Using the record for COc1cc(/N=c2\ccc3ncc(-c4cnn(C)c4)nc3n2CC(C)(C)O)c(F)c(OC)c1 , report its BAF3-FGFR1 (MIN IL3) pIC50. 7.25

Given the compound COc1cc(OC)c(F)c(N(CC(O)COC(C)C)c2ccc3ncc(-c4cnn(C)c4)nc3n2)c1F (stereo not drawn) [Compound 61] , what is its reported BAF3-FGFR1 (MIN IL3) pIC50? 7.56

Which BAF3-FGFR1 (MIN IL3) pIC50 is reported for this compound? COc1cc(OC)c(F)c(N(CCN)c2ccc3ncc(-c4cnn(C)c4)nc3n2)c1F 8.20

Form field: reported BAF3-FGFR1 (MIN IL3) pIC50 of COc1cc(OC)c(F)c(N(Cc2nc[nH]n2)c2ccc3ncc(-c4cnn(C)c4)nc3n2)c1 7.74

What value of BAF3-FGFR1 (MIN IL3) pIC50 has been recorded for this entry: COc1cc(OC)c(F)c(N(Cc2nc[nH]n2)c2ccc3ncc(-c4cnn(C)c4)nc3n2)c1F 8.28

What does the record list as BAF3-FGFR1 (MIN IL3) pIC50 for CNC(=O)c1cc(F)cc(N(Cc2ncc[nH]2)c2ccc3ncc(-c4cnn(C)c4)nc3n2)c1 ? 7.61

Param item = COc1cc(OC)c(F)c(N(CC2CC(O)C(=O)N2)c2ccc3ncc(-c4cnn(C)c4)nc3n2)c1 (stereo not drawn) ; retrieve measured BAF3-FGFR1 (MIN IL3) pIC50. 6.72

Consider the compound shown here: COc1cc(/N=c2\ccc3ncc(-c4cnn(C)c4)nc3n2CC2CCCOC2)cc(OC)c1 (stereo not drawn) What is its recorded BAF3-FGFR1 (MIN IL3) pIC50? 7.38

Dear colleague, I am looking for the recorded BAF3-FGFR1 (MIN IL3) pIC50 of the following compound: COC(=O)CN(c1ccc2ncc(-c3cnn(C)c3)nc2n1)c1cc(OC)cc(OC)c1F 7.08

Value lookup for BAF3-FGFR1 (MIN IL3) pIC50; key = COc1cc(OC)c(F)c(/N=c2\ccc3ncc(-c4cnn(C)c4)nc3n2CC2CCC(=O)N2)c1F (stereo not drawn) [Compound 47] 7.86

Item under review: COc1cc(OC)c(F)c(N(Cc2nc3ccccc3[nH]2)c2ccc3ncc(-c4cnn(C)c4)nc3n2)c1 . Reported BAF3-FGFR1 (MIN IL3) pIC50? 7.76

Recorded BAF3-FGFR1 (MIN IL3) pIC50 of COc1cc(OC)c(F)c(N(Cc2ncc[nH]2)c2ccc3ncc(-c4cnn(CC(C)(C)O)c4)nc3n2)c1 , please. 8.57

Would you mind telling me what BAF3-FGFR1 (MIN IL3) pIC50 value was observed for COc1cc(OC)c(F)c(N(CC2CCC(=O)N2CCO)c2ccc3ncc(-c4cnn(C)c4)nc3n2)c1 (stereo not drawn) [Compound 194] ? 6.30

Quick check: BAF3-FGFR1 (MIN IL3) pIC50 of COc1cc(/N=c2\ccc3ncc(-c4cnn(C)c4)nc3n2CCN2CCCC2=O)c(F)c(OC)c1 ? 7.17

* * *

STUDY TARGET: Ba/F3-KDR-transfected cells (Homo sapiens)
Construct: BAF3-KDR (MIN IL3) pIC50; other: minus IL3
Sequence (P35968 whole entry, change not shown): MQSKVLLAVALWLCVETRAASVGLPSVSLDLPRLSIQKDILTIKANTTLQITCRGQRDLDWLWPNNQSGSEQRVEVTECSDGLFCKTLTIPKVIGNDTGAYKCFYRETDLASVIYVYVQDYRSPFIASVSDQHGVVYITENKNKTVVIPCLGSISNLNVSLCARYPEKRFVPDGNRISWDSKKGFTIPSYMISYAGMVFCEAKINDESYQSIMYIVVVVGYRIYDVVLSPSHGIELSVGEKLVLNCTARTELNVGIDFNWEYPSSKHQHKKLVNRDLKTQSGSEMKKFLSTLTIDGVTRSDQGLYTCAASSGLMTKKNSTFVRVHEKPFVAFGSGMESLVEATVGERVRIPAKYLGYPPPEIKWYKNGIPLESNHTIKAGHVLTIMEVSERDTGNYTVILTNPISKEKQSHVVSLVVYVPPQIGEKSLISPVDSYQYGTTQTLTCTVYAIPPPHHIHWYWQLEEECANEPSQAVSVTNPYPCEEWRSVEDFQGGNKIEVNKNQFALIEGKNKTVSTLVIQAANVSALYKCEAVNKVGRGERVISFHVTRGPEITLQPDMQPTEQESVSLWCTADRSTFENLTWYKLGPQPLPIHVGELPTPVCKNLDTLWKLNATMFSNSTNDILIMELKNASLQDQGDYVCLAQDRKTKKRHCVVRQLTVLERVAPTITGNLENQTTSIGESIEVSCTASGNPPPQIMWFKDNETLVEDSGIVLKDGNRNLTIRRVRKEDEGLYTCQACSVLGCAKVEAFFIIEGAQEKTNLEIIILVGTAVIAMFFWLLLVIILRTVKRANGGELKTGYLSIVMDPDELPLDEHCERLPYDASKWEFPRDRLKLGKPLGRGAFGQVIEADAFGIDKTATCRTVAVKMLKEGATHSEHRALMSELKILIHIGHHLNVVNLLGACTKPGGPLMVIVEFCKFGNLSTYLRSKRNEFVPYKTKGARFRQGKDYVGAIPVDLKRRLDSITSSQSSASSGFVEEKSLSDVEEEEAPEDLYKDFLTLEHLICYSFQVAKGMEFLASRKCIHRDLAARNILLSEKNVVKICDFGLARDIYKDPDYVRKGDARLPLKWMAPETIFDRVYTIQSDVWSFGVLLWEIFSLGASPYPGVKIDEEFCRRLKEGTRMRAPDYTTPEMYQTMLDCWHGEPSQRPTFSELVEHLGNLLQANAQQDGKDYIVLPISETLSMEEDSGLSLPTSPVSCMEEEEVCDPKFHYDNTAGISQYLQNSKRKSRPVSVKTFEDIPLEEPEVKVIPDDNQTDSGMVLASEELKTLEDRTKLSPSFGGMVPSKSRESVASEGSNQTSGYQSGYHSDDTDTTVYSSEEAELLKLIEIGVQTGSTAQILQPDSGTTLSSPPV
ASSAY SUMMARY: Ba/F3-KDR (minus IL3) cellular proliferation assay, Alamar Blue
Format: cell-based
Where a name gives a salt, the structure may show the parent alone.
EXPERIMENTAL ENDPOINT: BAF3-KDR (MIN IL3) pIC50
# respond with the number and nothing more

Fill in: BAF3-KDR (MIN IL3) pIC50 of COc1cc(OC)c(F)c(N(Cc2ncco2)c2ccc3ncc(-c4cnn(C)c4)nc3n2)c1 is ___ 5.67

Quick check: BAF3-KDR (MIN IL3) pIC50 of COc1cc(/N=c2\ccc3ncc(-c4cnn(C)c4)nc3n2Cc2cc[nH]n2)c(F)c(OC)c1 ? 6.58

Please report the recorded BAF3-KDR (MIN IL3) pIC50 for COc1cc(OC)c(F)c(N(Cc2ncc[nH]2)c2ccc3ncc(-c4cnn(C)c4)nc3n2)c1 [23-hydrochloric acid salt] . 6.68

GET /values?readout=BAF3-KDR (MIN IL3) pIC50&item= COc1cc(OC)c(F)c(N(Cc2cn(S(=O)(=O)N(C)C)cn2)c2ccc3ncc(-c4cnn(C)c4)nc3n2)c1 5.67

State the recorded BAF3-KDR (MIN IL3) pIC50 for this entry: COc1cc(OC)c(Cl)c(N(CC2CCC(=O)N2)c2ccc3ncc(-c4cnn(C)c4)nc3n2)c1Cl (single isomer, unassigned) 5.14

* * *

STUDY TARGET: KDR (h) (Homo sapiens, UniProt P35968)
Sequence (P35968 20-1356): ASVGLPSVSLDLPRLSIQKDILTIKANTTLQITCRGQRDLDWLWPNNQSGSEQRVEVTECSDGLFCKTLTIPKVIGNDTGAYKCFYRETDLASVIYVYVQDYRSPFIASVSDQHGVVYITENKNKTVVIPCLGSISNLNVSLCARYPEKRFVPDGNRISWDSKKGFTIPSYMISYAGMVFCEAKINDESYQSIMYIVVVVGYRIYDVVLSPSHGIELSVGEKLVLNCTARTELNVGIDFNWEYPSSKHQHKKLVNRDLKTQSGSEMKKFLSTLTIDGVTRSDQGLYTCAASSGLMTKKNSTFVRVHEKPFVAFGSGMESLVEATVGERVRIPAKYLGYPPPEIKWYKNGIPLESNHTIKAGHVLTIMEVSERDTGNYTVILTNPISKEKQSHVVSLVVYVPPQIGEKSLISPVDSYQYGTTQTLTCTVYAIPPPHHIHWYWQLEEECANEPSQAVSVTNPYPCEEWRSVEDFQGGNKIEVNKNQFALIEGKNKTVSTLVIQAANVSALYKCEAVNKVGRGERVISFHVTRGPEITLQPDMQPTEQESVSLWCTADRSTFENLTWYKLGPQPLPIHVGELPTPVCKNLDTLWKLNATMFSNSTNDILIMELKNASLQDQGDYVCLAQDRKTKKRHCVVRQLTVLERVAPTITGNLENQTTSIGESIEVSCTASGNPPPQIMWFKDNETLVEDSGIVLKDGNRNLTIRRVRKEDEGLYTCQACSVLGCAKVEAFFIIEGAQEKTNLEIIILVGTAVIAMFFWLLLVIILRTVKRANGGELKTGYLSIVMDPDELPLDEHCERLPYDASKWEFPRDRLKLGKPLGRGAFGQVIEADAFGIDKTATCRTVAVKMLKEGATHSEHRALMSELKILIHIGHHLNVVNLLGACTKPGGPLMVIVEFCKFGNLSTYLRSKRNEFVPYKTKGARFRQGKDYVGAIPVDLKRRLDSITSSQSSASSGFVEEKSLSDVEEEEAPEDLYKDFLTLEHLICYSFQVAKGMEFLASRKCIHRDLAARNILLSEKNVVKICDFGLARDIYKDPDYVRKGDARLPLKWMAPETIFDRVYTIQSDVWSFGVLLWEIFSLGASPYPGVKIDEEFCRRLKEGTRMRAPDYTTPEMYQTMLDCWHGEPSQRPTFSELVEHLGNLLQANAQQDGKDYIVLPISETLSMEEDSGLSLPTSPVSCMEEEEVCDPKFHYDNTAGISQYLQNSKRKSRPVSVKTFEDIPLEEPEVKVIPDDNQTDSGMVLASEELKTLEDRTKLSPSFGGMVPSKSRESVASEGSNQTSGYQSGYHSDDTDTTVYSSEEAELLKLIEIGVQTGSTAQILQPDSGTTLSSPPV
ASSAY SUMMARY: KDR (VEGFR2) (enzymatic assay), TR-FRET
Type: biochemical
RUN PARAMETERS: read-out: VEGFR 2 (KDR) pIC50 (converted)
EXPERIMENTAL ENDPOINT: IC50
Remember to quote the unit after the number.

// lookup IC50 | system=KDR (h) (Homo sapiens, UniProt P35968) | key= Cn1cc(-c2cnc3ccc(N(Cc4ncc[nH]4)c4c(F)c(F)cc(F)c4F)nc3n2)cn1 [Compound 175] 219 nM

Any idea what IC50 came out for COc1cc(OC)cc(N(Cc2nncn2CCO)c2ccc3ncc(-c4cnn(C)c4)nc3n2)c1 [Compound 204] on KDR (h) (Homo sapiens, UniProt P35968)? 302 nM

Missing value: IC50, KDR (h) (Homo sapiens, UniProt P35968), entry COc1cc(OC)c(F)c(N(CC(=O)c2cnn(C)c2)c2ccc3ncc(-c4cnn(C)c4)nc3n2)c1 [Compound 225] . Fill in? 200 nM

Recorded IC50 for COc1cc(OC)c(F)c(N(Cc2nc(Br)c[nH]2)c2ccc3ncc(-c4cnn(C)c4)nc3n2)c1 [Compound 238] with KDR (h) (Homo sapiens, UniProt P35968), please? 11.2 nM

Request: IC50, test system KDR (h) (Homo sapiens, UniProt P35968), entry COc1cc(OC)cc(N(Cc2nc(OC)cc(OC)n2)c2ccc3ncc(-c4cnn(C)c4)nc3n2)c1 [Compound 174] 89.1 nM

# get_value(readout= IC50, system= KDR (h) (Homo sapiens, UniProt P35968)) for COc1cc(OC)c(F)c(N(CCN2CCCC2=O)c2ccc3ncc(-c4cnn(C)c4)nc3n2)c1 [Compound 157] 46.8 nM

Missing value: IC50, KDR (h) (Homo sapiens, UniProt P35968), entry COC(=O)CN(c1ccc2ncc(-c3cnn(C)c3)nc2n1)c1cc(OC)cc(OC)c1F [Compound 214] . Fill in? 145 nM

* * *

STUDY TARGET: FGFR4 (h) (Homo sapiens)
Sequence (P22455 22-802): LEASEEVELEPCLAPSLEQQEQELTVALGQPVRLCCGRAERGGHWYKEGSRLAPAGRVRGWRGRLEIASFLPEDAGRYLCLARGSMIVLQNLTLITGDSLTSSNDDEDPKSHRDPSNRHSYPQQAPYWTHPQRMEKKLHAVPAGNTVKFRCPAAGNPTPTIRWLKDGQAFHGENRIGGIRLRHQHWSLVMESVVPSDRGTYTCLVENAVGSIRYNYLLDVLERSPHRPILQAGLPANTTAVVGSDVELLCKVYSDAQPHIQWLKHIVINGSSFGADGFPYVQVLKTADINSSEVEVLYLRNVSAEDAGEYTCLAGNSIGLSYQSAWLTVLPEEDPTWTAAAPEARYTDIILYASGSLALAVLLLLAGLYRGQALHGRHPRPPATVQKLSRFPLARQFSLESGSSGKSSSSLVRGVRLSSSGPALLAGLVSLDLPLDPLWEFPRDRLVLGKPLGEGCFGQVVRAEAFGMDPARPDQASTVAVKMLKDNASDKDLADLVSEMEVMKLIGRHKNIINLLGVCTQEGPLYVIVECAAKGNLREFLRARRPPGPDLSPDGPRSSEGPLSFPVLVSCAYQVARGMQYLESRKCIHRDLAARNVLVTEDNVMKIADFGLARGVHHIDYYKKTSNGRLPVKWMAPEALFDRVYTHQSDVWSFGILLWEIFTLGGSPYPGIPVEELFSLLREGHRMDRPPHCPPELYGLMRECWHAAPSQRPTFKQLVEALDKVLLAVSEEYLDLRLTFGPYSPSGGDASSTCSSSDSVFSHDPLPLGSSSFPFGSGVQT
ASSAY SUMMARY: FGFR4 (enzymatic assay), TR-FRET
Format: biochemical
RUN PARAMETERS: FGFR 4 pIC50, enzymatic assay; average values if tested multiple times
EXPERIMENTAL ENDPOINT: log10 of IC50 (log10 of the value in nM)
Heads up, the numbers here are log10 of IC50 in nM units.

I'm curious: which log10 of IC50 was measured for CNCCn1/c(=N/c2cc(OC)cc(OC)c2F)ccc2ncc(-c3cnn(C)c3)nc21 tested on FGFR4 (h) (Homo sapiens)? 1.25

Report log10 of IC50 for COc1cc(OC)c(F)c(/N=c2\ccc3ncc(-c4cnn(C)c4)nc3n2CCCN2CCCC2=O)c1F tested on FGFR4 (h) (Homo sapiens). -0.35

State its log10 of IC50 on FGFR4 (h) (Homo sapiens): COc1cc(OC)c(F)c(/N=c2\ccc3ncc(-c4cnn(C)c4)nc3n2CCNC(C)C)c1F 0.70

Form field: log10 of IC50 recorded for COc1cc(/N=c2\ccc3ncc(-c4cnn(C)c4)nc3n2CC(O)COC(C)C)c(F)c(OC)c1 (single isomer, unassigned) with FGFR4 (h) (Homo sapiens) (enter value) 0.48

For FGFR4 (h) (Homo sapiens), provide log10 of IC50 of COc1cc(OC)cc(N(CC(O)C(F)(F)F)c2ccc3ncc(-c4cnn(C)c4)nc3n2)c1 (single isomer, unassigned) [Compound 33] please. 0.15

Quick check: log10 of IC50 on FGFR4 (h) (Homo sapiens), item COc1cc(OC)c(F)c(N(Cc2ncccn2)c2ccc3ncc(-c4cnn(C)c4)nc3n2)c1 ? 1.40

log10 of IC50 of COc1cc(OC)cc(N(Cc2ncccn2)c2ccc3ncc(-c4cnn(C)c4)nc3n2)c1 on FGFR4 (h) (Homo sapiens)? 1.10
